Data origin, for the record: ChEMBL document CHEMBL5137096

tested on: Zika virus; type: functional, Vero E6; conditions: time 72 hrs
endpoint: EC (µg/mL)
One number for each entry, in µg/mL.

Some solved cases for reference:
molecule	systemUnderTest	readoutValue
CC(C)c1cc2c(cc1O)[C@@]1(C)CCC[C@](C)(C(=O)O)[C@@H]1CC2	Zika virus	25
COC(=O)[C@]1(C)CCC[C@]2(C)c3cc(OC(C)=O)c(C(C)C)cc3CC[C@@H]12	Zika virus	12.5
COC(=O)[C@]1(C)CCC[C@]2(C)c3ccc(C(C)C)cc3CC[C@@H]12	Zika virus	12.5

Checklist item: EC tested on Zika virus, entry CC(C)c1cc2c(cc1O)[C@@]1(C)CCC[C@@](C)(CO)[C@@H]1CC2 [18-HYDROXYFERRUGINOL] , value?
12.5

---

test system: BHK-21; assay: Cytotoxicity against golden hamster BHK-21 cells measured after 6 days by MTT assay; type: toxicity, cell-based, Mesocricetus auratus; details: bhk-21, 144 h, time 6 day
I'd be grateful if you could share measured CC100 for these entries.
Give bare numbers, in µg/mL.

Some solved cases for reference:
compoundStructure	systemUnderTest	CC100 [µg/mL]
COC(=O)[C@@]1(C)CCC[C@]2(C)c3cc(OC(C)=O)c(C(C)C)cc3C(=O)C[C@@H]12	BHK-21	25
CC(C)c1cc2c(cc1O)[C@@]1(C)CCC[C@@](C)(C(=O)O)[C@@H]1CC2	BHK-21	12.5
COC(=O)[C@@]1(C)CCC[C@]2(C)c3cc(C(C)=O)c(C(C)C)cc3CC[C@@H]12	BHK-21	50
COC(=O)[C@]1(C)CCC[C@]2(C)c3cc(C(C)=O)c(C(C)C)cc3CC[C@@H]12	BHK-21	25

Next item in the queue.
Record request: CC100 value, item `COC(=O)[C@@]1(C)CCC[C@]2(C)c3cc(OC(C)=O)c(C(C)C)cc3CC[C@@H]12`
25

---

test system: Zika virus; format: functional, Vero E6; conditions: time 72 hrs
endpoint: EC (µg/mL)
Give bare numbers, in µg/mL.

Some solved cases for reference:
molecule	EC (µg/mL)
COC(=O)[C@@]1(C)CCC[C@]2(C)c3cc(OC(C)=O)c(C(C)C)cc3C(=O)C[C@@H]12	25
CC(C)c1cc2c(cc1O)[C@@]1(C)CCC[C@@](C)(CN3C(=O)c4ccccc4C3=O)[C@@H]1CC2	6.2
CC(C)c1cc2c(cc1O)[C@@]1(C)CCC[C@@](C)(CO)[C@@H]1CC2 [18-HYDROXYFERRUGINOL]	25
CC(C)c1ccc2c(c1O)CC[C@H]1[C@](C)(CO)CCC[C@]21C	12.5
CC(C)c1cc2c(cc1O)[C@@]1(C)CCC[C@](C)(C(=O)O)[C@@H]1CC2 [LAMBERTIC ACID]	25
CC(C)c1cc2c(cc1O)[C@@]1(C)CCCC(C)(C)[C@@H]1CC2 [FERRUGINOL]	12.5

Please supply EC for each of the following items, keeping them in order.
1. CC(C)c1ccc2c(c1O)CC[C@H]1[C@](C)(C(=O)O)CCC[C@]21C
2. CC(C)c1cc2c(cc1O)[C@@]1(C)CCC[C@@](C)(CO)[C@@H]1CC2=O

[25, 12.5]

Please supply EC for each of the following items, keeping them in order.
1. CC(C)c1cc2c(cc1O)[C@@]1(C)CCC[C@](C)(CO)[C@@H]1CC2
2. COC(=O)[C@]1(C)CCC[C@]2(C)c3ccc(C(C)C)cc3CC[C@@H]12
3. COC(=O)[C@@]1(C)CCC[C@]2(C)c3cc(OC(C)=O)c(C(C)C)cc3CC[C@@H]12
4. COC(=O)[C@]1(C)CCC[C@]2(C)c3ccc(C(C)C)c(O)c3CC[C@@H]12
5. COC(=O)[C@@]1(C)CCC[C@]2(C)c3cc(O)c(C(C)C)cc3CC[C@@H]12
6. COC(=O)[C@@]1(C)CCC[C@]2(C)c3cc(C(C)=O)c(C(C)C)cc3CC[C@@H]12
7. CC(C)c1ccc2c(c1)CC[C@H]1C(C)(CO)CCC[C@]21C (stereo partly specified)
8. CC(C)c1ccc2c(c1)CC[C@H]1C(C)(C(=O)O)CCC[C@]21C (stereo partly specified)

1: 12.5; 2: 6.2; 3: 12.5; 4: 12.5; 5: 25; 6: 25; 7: 12.5; 8: 12.5

---

I'd be grateful if you could share measured EC for these entries.
tested on: Zika virus; assay type: functional, Vero E6; details: time 72 hrs
Answers are plain numbers, in µg/mL.

compoundStructure	EC, µg/mL
COC(=O)[C@@]1(C)CCC[C@]2(C)c3cc(C(C)=O)c(C(C)C)cc3CC[C@@H]12	25
CC(C)c1cc2c(cc1O)[C@@]1(C)CCC[C@@](C)(CN3C(=O)c4ccccc4C3=O)[C@@H]1CC2	3.1
CC(C)c1ccc2c(c1O)CC[C@H]1[C@](C)(C(=O)O)CCC[C@]21C	12.5

Next item in the queue.
Record request: EC value, item `COC(=O)[C@@]1(C)CCC[C@]2(C)c3cc(O)c(C(C)C)cc3CC[C@@H]12`
12.5

---

tested on: Human alphaherpesvirus 1; type: functional, 29R, Vero E6; conditions: time 72 hrs
I'd be grateful if you could share measured EC for these entries.
One number for each entry, in µg/mL.

compound	EC, µg/mL
COC(=O)[C@@]1(C)CCC[C@]2(C)c3cc(C(C)=O)c(C(C)C)cc3CC[C@@H]12	25
CC(C)c1cc2c(cc1O)[C@@]1(C)CCC[C@@](C)(C(=O)O)[C@@H]1CC2	12.5
COC(=O)[C@]1(C)CCC[C@]2(C)c3cc(OC(C)=O)c(C(C)C)cc3CC[C@@H]12	12.5
CC(C)c1cc2c(cc1O)[C@@]1(C)CCC[C@@](C)(C(=O)O)[C@@H]1CC2=O	25
COC(=O)[C@]1(C)CCC[C@]2(C)c3cc(C(C)=O)c(C(C)C)cc3CC[C@@H]12	12.5

Please supply EC for each of the following items, keeping them in order.
1. CC(C)c1cc2c(cc1O)[C@@]1(C)CCC[C@](C)(C(=O)O)[C@@H]1CC2
2. CC(C)c1cc2c(cc1O)[C@@]1(C)CCC[C@@](C)(CN3C(=O)c4ccccc4C3=O)[C@@H]1CC2

1. 25
2. 12.5

Please supply EC for each of the following items, keeping them in order.
1. COC(=O)[C@]1(C)CCC[C@]2(C)c3ccc(C(C)C)c(O)c3CC[C@@H]12
2. COC(=O)[C@]1(C)CCC[C@]2(C)c3cc(OC(C)=O)c(C(C)C)cc3C(=O)C[C@@H]12
3. COC(=O)[C@]1(C)CCC[C@]2(C)c3cc(O)c(C(C)C)cc3CC[C@@H]12
4. CC(C)c1cc2c(cc1O)[C@@]1(C)CCC[C@](C)(CO)[C@@H]1CC2=O
5. CC(C)c1cc2c(cc1O)[C@@]1(C)CCC[C@@](C)(CO)[C@@H]1CC2=O
6. CC(C)c1cc2c(cc1O)[C@@]1(C)CCC[C@@](C)(CO)[C@@H]1CC2 [18-HYDROXYFERRUGINOL]

12.5
25
12.5
25
12.5
12.5

---

test system: Vero C1008; experiment: Cytotoxicity against African green monkey Vero E6 cells measured after 72 hrs by MTT assay; format: toxicity, cell-based; details: chlorocebus sabaeus, vero c1008, 72 h
endpoint: CC100 (µg/mL)
Answers are plain numbers, in µg/mL.

Some solved cases for reference:
compound	systemUnderTest	CC100, µg/mL
COC(=O)[C@]1(C)CCC[C@]2(C)c3cc(O)c(C(C)C)cc3CC[C@@H]12	Vero C1008	50
CC(C)c1ccc2c(c1)CC[C@H]1C(C)(C(=O)O)CCC[C@]21C (some centres undefined)	Vero C1008	50
COC(=O)[C@@]1(C)CCC[C@]2(C)c3cc(O)c(C(C)C)cc3C(=O)C[C@@H]12	Vero C1008	25

Next item in the queue.
Record request: CC100 value, item `CC(C)c1cc2c(cc1O)[C@@]1(C)CCC[C@@](C)(C(=O)O)[C@@H]1CC2`
25

---

system: Vero C1008; test: Cytotoxicity against African green monkey Vero E6 cells measured after 72 hrs by MTT assay; assay type: toxicity, cell-based; conditions: chlorocebus sabaeus, vero c1008, 72 h
I'd be grateful if you could share measured CC100 for these entries.

Some solved cases for reference:
compoundStructure	CC100
COC(=O)[C@]1(C)CCC[C@]2(C)c3ccc(C(C)C)cc3CC[C@@H]12	> 50 µg/mL
NC(=O)c1ncn([C@@H]2O[C@H](CO)[C@@H](O)[C@H]2O)n1	> 160 µg/mL

Record request: CC100 value, item `COC(=O)[C@@]1(C)CCC[C@]2(C)c3cc(C(C)=O)c(C(C)C)cc3CC[C@@H]12`
> 50 µg/mL
